- Tested Target: human α7 nAChR (Homo sapiens, UniProt P36544)
- Construct: host or cells: HEK
- Sequence (P36544 23-502): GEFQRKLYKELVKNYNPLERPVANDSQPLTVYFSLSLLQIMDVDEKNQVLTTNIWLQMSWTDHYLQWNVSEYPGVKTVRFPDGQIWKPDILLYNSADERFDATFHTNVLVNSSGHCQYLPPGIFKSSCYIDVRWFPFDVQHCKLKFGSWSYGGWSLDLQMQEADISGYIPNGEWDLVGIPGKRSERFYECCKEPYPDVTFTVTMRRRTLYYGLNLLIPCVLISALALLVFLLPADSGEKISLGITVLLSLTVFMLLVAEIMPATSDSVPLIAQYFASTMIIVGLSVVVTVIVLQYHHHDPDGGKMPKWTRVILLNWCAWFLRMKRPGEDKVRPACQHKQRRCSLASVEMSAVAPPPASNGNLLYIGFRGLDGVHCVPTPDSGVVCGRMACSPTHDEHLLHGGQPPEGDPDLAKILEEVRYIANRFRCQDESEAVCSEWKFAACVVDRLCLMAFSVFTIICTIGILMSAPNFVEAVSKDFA
- Experiment: Automated patch-clamp electrophysiology functional assay (Assay A)
- Type: cell-based
- Settings: HEK cell line stably expressing human RIC-3 and human α7; IonFlux HT whole-cell population patch; with or without 40 μM acetylcholine; read-out: α7 nAChR EC50
Readout Name: EC50 (µM)

| Compound | Tested Target | Measurement |
| --- | --- | --- |
| COc1cc(OC[C@H]2CC23CCN(S(N)(=O)=O)CC3)nc(OCC(F)(F)F)c1 | human α7 nAChR (Homo sapiens, UniProt P36544) | 0.19 |
| NS(=O)(=O)N1CCC2(CC1)C[C@H]2COc1cccc(-c2ccccc2)n1 | human α7 nAChR (Homo sapiens, UniProt P36544) | 0.069 |
| NS(=O)(=O)N1CCC2(CC2COc2cccc(OCC(F)(F)F)n2)C(F)(F)C1 (racemic) | human α7 nAChR (Homo sapiens, UniProt P36544) | 0.31 |
| CC(F)(F)c1cccc(OC[C@@H]2CC23CCN(S(N)(=O)=O)CC3)n1 | human α7 nAChR (Homo sapiens, UniProt P36544) | 0.74 |
| COc1ccc(Cl)cc1NC(=O)[C@@H]1C(F)(F)C12CCN(S(N)(=O)=O)CC2 | human α7 nAChR (Homo sapiens, UniProt P36544) | 0.063 |
| NS(=O)(=O)N1CCC2(CC1)C(CSc1ccc(C(F)(F)F)cc1)C2(F)F (single isomer, unassigned) | human α7 nAChR (Homo sapiens, UniProt P36544) | 0.15 |
| Cn1nc(C(F)(F)F)cc1OCC1C(F)(F)C12CCN(S(N)(=O)=O)CC2 (single isomer, unassigned) [Example A11] | human α7 nAChR (Homo sapiens, UniProt P36544) | 0.09 |
| CCOc1cccc(OC[C@@H]2CC23CCN(S(N)(=O)=O)CC3)n1 | human α7 nAChR (Homo sapiens, UniProt P36544) | 0.45 |
| NS(=O)(=O)N1CCC2(CC1)C(COc1ccnc(OCC(F)(F)F)c1)C2(F)F (single isomer, unassigned) [Example A33] | human α7 nAChR (Homo sapiens, UniProt P36544) | 0.02 |
| COc1ccc(Cl)cc1NC[C@@H]1C(F)(F)C12CCN(S(N)(=O)=O)CC2 | human α7 nAChR (Homo sapiens, UniProt P36544) | 0.022 |

1: NS(=O)(=O)N1CCC2(CC1)CC2COc1ccccc1OC(F)F (single isomer, unassigned)
2: COc1ccc(Cl)cc1SC[C@@H]1CC12CCN(S(N)(=O)=O)CC2
3: COc1ccc(Cl)cc1OCC1CC12CCN(S(N)(=O)=O)CC2 (racemic)
4: NS(=O)(=O)N1CCC2(CC1)C(COc1cccc(OCC(F)(F)F)n1)C2(F)F (single isomer, unassigned)
Arrange by EC50, high to low. Give the order by naming the labels one after another as requested.
1, 3, 2, 4
(1: 0.65 µM, 3: 0.12 µM, 2: 0.052 µM, 4: 0.019 µM)

1: CC(C)c1cccc(OC[C@@H]2CC23CCN(S(N)(=O)=O)CC3)n1
2: NS(=O)(=O)N1CCC2(CC1)C[C@H]2COCc1cccc(OCC(F)(F)F)n1
Lower EC50: 1 or 2 ? Field: selected label. Fill in the label of the entry you choose.
1
(1: 0.64 µM, 2: 1.2 µM)

a: NS(=O)(=O)N1CCC2(CC1)C(COc1cccnc1OCC(F)(F)F)C2(F)F (single isomer, unassigned) [Example A35]
b: NS(=O)(=O)N1CCC2(CC1)C(COc1noc(-c3ccccc3)n1)C2(F)F (single isomer, unassigned) [Example 6]
Of a and b , which shows the smaller EC50 value? Mark your answer with the label of the selected entry.
b
(b: 0.049 µM, a: 0.54 µM)

P: NS(=O)(=O)N1CCC2(CC1)C[C@@H]2COc1cccc(OC(F)(F)F)c1
Q: NS(=O)(=O)N1CCC2(CC1)C(COc1cc(F)ccc1C(F)(F)F)C2(F)F (single isomer, unassigned)
Choose between P and Q : whose measured EC50 value is numerically larger? Write down the label attached to your selection.
P
(P: 1.9 µM, Q: 0.089 µM)

P: NS(=O)(=O)N1CCC2(CC1)C(COc1cccc(OC(F)F)c1)C2(F)F (single isomer, unassigned) [Example A28]
Q: NS(=O)(=O)N1CCC2(CC1)C[C@H]2COc1cccnc1OCC(F)(F)F
R: NS(=O)(=O)N1CCC2(CC1)C[C@H]2COc1cccc(OCC(F)(F)F)n1
S: NS(=O)(=O)N1CCC2(CC1)CC2COc1cccc(OCC(F)(F)F)c1 (centres unmarked)
Sort these compounds on EC50 so the largest reading comes first. Form entry: ranked labels (order as requested).
Q, S, R, P
(Q: 1.2 µM, S: 0.33 µM, R: 0.074 µM, P: 0.037 µM)

P: NS(=O)(=O)N1CCC2(CC1)C(COc1ccnc(OC(F)F)c1)C2(F)F (single isomer, unassigned) [Example 2]
Q: NS(=O)(=O)N1CCC2(CC1)C[C@H]2COc1noc(-c2ccccc2)n1
For the pair P and Q , which entry has the numerically smaller recorded EC50? Could you answer with the label of the item you picked?
P

a: NS(=O)(=O)N1CCC2(CC1)C(/C=C/c1ccc(F)cc1C(F)(F)F)C2(F)F (centres unmarked)
b: N#Cc1cccc(OC[C@@H]2CC23CCN(S(N)(=O)=O)CC3)n1
Which entry shows the lesser value of EC50 here, a or b ? Provide the label of your selected option as the answer.
b
(b: 1.1 µM, a: 1.9 µM)

a: COc1ccccc1NC(=O)[C@@H]1CC12CCN(S(N)(=O)=O)CC2
b: CC(C)(O)c1cccc(OC[C@@H]2CC23CCN(S(N)(=O)=O)CC3)n1
c: NS(=O)(=O)N1CCC2(CC2COc2noc(-c3ccccc3)n2)C(F)(F)C1 (racemic)
Hey, quick one: sort these by EC50, largest value first please. State the ranking by listing the labels in the requested order.
c, a, b

====

- Tested Target: human α7 nAChR (Homo sapiens, UniProt P36544)
- Construct: host or cells: HEK
- Experiment: Automated patch-clamp electrophysiology functional assay (Assay A)
- Type: cell-based
- Settings: HEK cell line stably expressing human RIC-3 and human α7; IonFlux HT whole-cell population patch; with or without 40 μM acetylcholine; read-out: α7 nAChR Potency
pEC50: −log10 of the molar value.
Readout Name: pEC50

# count of solved cases: 3
| Molecule | Measurement |
| --- | --- |
| NS(=O)(=O)N1CCC2(CC1)C[C@@H]2COc1cccc(OCC2CC2)n1 | 6.30 to 7.00 |
| COc1ccc(Cl)cc1NC[C@@H]1CC12CCN(S(N)(=O)=O)CC2 | ≥ 7.00 |
| Cc1ccn(-c2cccc(OC[C@@H]3CC34CCN(S(N)(=O)=O)CC4)n2)n1 | 6.30 to 7.00 |

Fill: pEC50 (human α7 nAChR (Homo sapiens, UniProt P36544)) for this molecule `NS(=O)(=O)N1CCC2(CC1)C[C@H]2C(=O)Nc1cccc(Cl)c1`
5.30 to 6.30

Lab note: record pEC50 of `COc1ccc(Cl)cc1NC(=O)[C@@H]1CC12CCN(S(N)(=O)=O)CC2` tested on human α7 nAChR (Homo sapiens, UniProt P36544).
6.30 to 7.00

Name the value of pEC50 reported for NS(=O)(=O)N1CCC2(CC1)C(CSc1nnnn1-c1ccccc1)C2(F)F (single isomer, unassigned) [Example A62] when tested on human α7 nAChR (Homo sapiens, UniProt P36544).
5.30 to 6.30

Give pEC50; test system human α7 nAChR (Homo sapiens, UniProt P36544); molecule NS(=O)(=O)N1CCC2(CC1)CC2COc1cc(F)ccc1C(F)(F)F (single isomer, unassigned)
6.30 to 7.00

====

- Tested Target: human α7 nAChR (Homo sapiens)
- Construct: host or cells: HEK
- Experiment: Automated patch-clamp electrophysiology functional assay (Assay A)
- Assay type: cell-based
- Settings: HEK cell line stably expressing human RIC-3 and human α7; IonFlux HT whole-cell population patch; with or without 40 μM acetylcholine; read-out: α7 nAChR Potency
pEC50: −log10 of the molar value.
Below is a list of entries, each paired with its recorded pEC50 value.

Here are 5 molecules together with their reported answers.
| Molecule | pEC50 |
| --- | --- |
| NS(=O)(=O)N1CCC2(CC1)C[C@H]2COCc1cccc(OCC(F)(F)F)n1 | 5.30 to 6.30 |
| CC(C)(C)c1cccc(OC[C@@H]2CC23CCN(S(N)(=O)=O)CC3)n1 | 5.30 to 6.30 |
| NS(=O)(=O)N1CCC2(CC1)C(COc1cccc(OC(F)F)c1)C2(F)F (single isomer, unassigned) [Example A28] | ≥ 7.00 |
| COc1ccc(OC[C@@H]2CC23CCN(S(N)(=O)=O)CC3)c(OC)n1 | 4.30 to 5.30 |
| CS(=O)(=O)c1cccc(OC[C@@H]2CC23CCN(S(N)(=O)=O)CC3)n1 | 4.30 to 5.30 |

Please report pEC50 with human α7 nAChR (Homo sapiens) for item NS(=O)(=O)N1CCC2(CC1)C(COc1noc(-c3ccccc3)n1)C2(F)F (single isomer, unassigned) [Example 6] .
≥ 7.00

Look up and report pEC50, with human α7 nAChR (Homo sapiens) as system, for `COc1ccc(Cl)cc1NC(=O)[C@@H]1C(F)(F)C12CCN(S(N)(=O)=O)CC2`
≥ 7.00

// fetch pEC50 for NS(=O)(=O)N1CCC2(CC1)CC2COc1ccnc(C(F)(F)F)c1 (stereo not shown) ; system: human α7 nAChR (Homo sapiens)
5.30 to 6.30

With human α7 nAChR (Homo sapiens) as the test system, provide measured pEC50 for this molecule: COc1cccc(OCC2CC23CCN(S(N)(=O)=O)CC3)n1 (racemic)
5.30 to 6.30

Report measured pEC50 on human α7 nAChR (Homo sapiens); entry: `COc1ccc(Cl)cc1NC(=O)[C@H]1C(F)(F)C12CCN(S(N)(=O)=O)CC2`
5.30 to 6.30

Please tell me the measured pEC50 for `COc1ccc(Cl)cc1S(=O)(=O)C[C@@H]1CC12CCN(S(N)(=O)=O)CC2` ; system: human α7 nAChR (Homo sapiens).
5.30 to 6.30
